- Test system: MDA-MB-453
- experiment_summary: drug sensitivity score (DSS), single agent (DSS (weighted AUC score)); higher = more sensitive (stronger viability decrease); extreme values may be limits of the assay
- assay_conditions: BLU9931 0 nM; 72 h
Note to self: values exactly at 2 are fulfilled. So drug sensitivity score at or above 2 is fulfilled, below is not fulfilled.

Observe how each entry below is paired with its result.
- molecule: "CNC(=O)CN1CCC(Oc2cc3c(Nc4cccc(Cl)c4F)ncnc3cc2OC)CC1 [Sapitinib]"
  class_name: "fulfilled"
- molecule: "CN1CC[C@H](c2c(O)cc(O)c3c(=O)cc(-c4ccccc4Cl)oc23)[C@H](O)C1 [Alvocidib]"
  class_name: "fulfilled"
- molecule: "Cc1cc(Nc2nc(N[C@@H](C)c3ncc(F)cn3)ncc2Cl)[nH]n1 [AZD1480]"
  class_name: "not fulfilled"
- molecule: "COc1ccc(-c2nc(N3CCOCC3)c3sc(CN(C)c4ncc(C(=O)NO)cn4)cc3n2)cn1 [CUDC-907]"
  class_name: "fulfilled"
- molecule: "FC(F)(F)c1ccc(CNc2ccc(Cc3c[nH]c4ncc(Cl)cc34)cn2)cn1 [Pexidartinib]"
  class_name: "not fulfilled"

Dear colleague, could you confirm whether CC1=C(/C=C/C(C)=C/C=C/C(C)=C/C(=O)O)C(C)(C)CCC1 [Tretinoin] has drug sensitivity score at or above 2? not fulfilled

// same read-out, input: Oc1nc(-c2ccc(C(F)(F)F)cc2)nc2c1CSCC2 [XAV-939] not fulfilled

// same read-out, input: COc1cc2c(cc1-c1c(C)noc1C)ncc1[nH]c(=O)n([C@H](C)c3ccccn3)c12 [I-BET151] fulfilled
